We begin with a simple list: items and their reported DC50.
# TGT: SHP2 (Homo sapiens)
# Construct: endogenous in cells; host or cells: MV 411
# Sequence (Q06124 whole entry): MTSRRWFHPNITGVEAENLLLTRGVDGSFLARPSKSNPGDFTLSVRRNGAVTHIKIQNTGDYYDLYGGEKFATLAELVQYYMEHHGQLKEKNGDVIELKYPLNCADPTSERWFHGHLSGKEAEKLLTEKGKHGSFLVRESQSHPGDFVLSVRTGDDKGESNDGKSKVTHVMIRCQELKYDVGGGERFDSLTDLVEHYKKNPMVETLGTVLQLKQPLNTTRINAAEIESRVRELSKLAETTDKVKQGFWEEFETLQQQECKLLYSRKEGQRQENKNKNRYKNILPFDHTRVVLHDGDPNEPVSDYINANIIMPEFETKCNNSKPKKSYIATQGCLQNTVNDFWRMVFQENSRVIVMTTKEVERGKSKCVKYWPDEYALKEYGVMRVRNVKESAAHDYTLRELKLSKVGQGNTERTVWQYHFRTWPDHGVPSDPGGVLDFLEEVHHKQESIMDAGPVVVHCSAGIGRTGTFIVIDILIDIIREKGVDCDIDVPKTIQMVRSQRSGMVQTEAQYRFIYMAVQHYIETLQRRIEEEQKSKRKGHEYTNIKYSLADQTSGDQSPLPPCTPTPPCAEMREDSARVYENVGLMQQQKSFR
# PROTOCOL DESCRIPTION: SHP2 degradation in MV 411 cells by Western blot (median degradation concentration)
# Format: cell-based
# SETUP CONDITIONS: 24 hours with compound, SHP-2 antibody Western blot, concentration of the median degradation from exposure gray scale

- MOLECULE: "CCOc1cc2oc(-c3ccc(OCCOCCOCCOCCOc4cccc5c4C(=O)N(C4CCC(=O)NC4=O)C5=O)cc3Cl)cc(=O)c2cc1-c1cc(C(N)=O)ccc1O (stereo not drawn) [Compound 46]"
  DC50: "6 nM"
- MOLECULE: "CCOc1cc2oc(-c3ccc(OCCOCCOCCOCCOc4cccc5c4C(=O)N(C4CCC(=O)NC4=O)C5=O)cc3Cl)cc(=O)c2cc1-c1ccccc1C(N)=O (stereo not drawn) [Compound 45]"
  DC50: "> 250 nM"
- MOLECULE: "CCOc1cc2oc(-c3ccc(NCCOCCOCCOCCOc4cccc5c4C(=O)N(C4CCC(=O)NC4=O)C5=O)cc3Cl)cc(=O)c2cc1CN1CCC=C(n2c(=O)[nH]c3cc(NS(=O)(=O)C4CC4)ccc32)C1 (stereo not drawn) [Compound 50]"
  DC50: "> 750 nM"

Reference for the values: patent US20240293559A1
